Listed binders paired with reported optical density
- tgt: mouse ACVR2A (mouse, UniProt P27038 20-135, limits assumed)
- Sequence (P27038 20-135 limits assumed): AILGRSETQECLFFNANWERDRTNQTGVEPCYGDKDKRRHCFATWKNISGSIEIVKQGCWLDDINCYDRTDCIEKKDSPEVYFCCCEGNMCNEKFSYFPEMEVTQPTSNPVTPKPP
- experimentSummary: ELISA; also: test concentration or dose not given here

[
  {
    "binder": "373_F03 (antibody, V domains shown, VH/VL only) VH: EVQLLESGGGLVQPGGSLRLSCAASGFTFDSYSMNWVRQAPGKGLEWVANINYNSGYTGYADSVKGRFTISRDNSKNTLYLQMNSLRAEDTAVYYCARSATWHDTHLDYWGQGTLVTVSS VL: DIQMTQSPSSLSASVGDRVTITCRASQSILTYVNWYQQKPGKAPKLLIYAATSRHSGVPSRFSGSGSGTDFTLTISSLQPEDFATYYCQQSYDSPLTFGGGTKVEIK",
    "readingUnit": "OD",
    "optical density": 3.6
  },
  {
    "binder": "368_D10 (antibody, V domains shown, VH/VL only) VH: EVQLLESGGGLVQPGGSLRLSCAASGFTFDSYGMNWVRQAPGKGLEWVAGINYNSGYTSYADSVKGRFTISRDNSKNTLYLQMNSLRAEDTAVYYCARSATWHDTALDYWGQGTLVTVSS VL: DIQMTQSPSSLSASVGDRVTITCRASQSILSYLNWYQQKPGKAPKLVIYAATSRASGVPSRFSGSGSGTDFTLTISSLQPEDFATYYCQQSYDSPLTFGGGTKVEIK",
    "readingUnit": "OD",
    "optical density": 2.45
  },
  {
    "binder": "370_F08 (antibody, V domains shown, VH/VL only) VH: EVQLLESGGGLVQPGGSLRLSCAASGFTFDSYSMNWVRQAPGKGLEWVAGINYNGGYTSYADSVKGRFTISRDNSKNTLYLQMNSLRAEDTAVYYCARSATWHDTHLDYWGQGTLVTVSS VL: DIQMTQSPSSLSASVGDRVTITCRASQSIISYVNWYQQKPGKAPKLLIYAATSRHSGVPSRFSGSGSGTDFTLTISSLQPEDFATYYCQQSYNLPLTFGGGTKVEIK",
    "readingUnit": "OD",
    "optical density": 2.99
  },
  {
    "binder": "374_C11 (antibody, V domains shown, VH/VL only) VH: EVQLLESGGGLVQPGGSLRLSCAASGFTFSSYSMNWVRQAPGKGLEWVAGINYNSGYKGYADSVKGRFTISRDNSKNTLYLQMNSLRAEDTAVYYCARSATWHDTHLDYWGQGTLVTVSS VL: DIQMTQSPSSLSASVGDRVTITCRASQSILTYLNWYQQKPGKAPKLLIYAATSRASGVPSRFSGSGSGTDFTLTISSLQPEDFATYYCQQSYESPLTFGGGTKVEIK",
    "readingUnit": "OD",
    "optical density": 3.59
  },
  {
    "binder": "373_H06 (antibody, V domains shown, VH/VL only) VH: EVQLLESGGGLVQPGGSLRLSCAASGFTFSSYGMHWVRQAPGKGLEWVAGINYNGGYTSYADSVKGRFTISRDNSKNTLYLQMNSLRAEDTAVYYCARSATWHDTHLDYWGQGTLVTVSS VL: DIQMTQSPSSLSASVGDRVTITCRASQSIISYVNWYQQKPGKAPKLLIYAATSLASGVPSRFSGSGSGTDFTLTISSLQPEDFATYYCQQSYDLPLTFGGGTKVEIK",
    "readingUnit": "OD",
    "optical density": 3.15
  }
]
